Known Inhibition rate (%) of a selection of molecules
Test system: HUVECs
Assay: Transwell migration inhibition on HUVECs
Type: cell-based, human
Settings: HUVEC migration vs blank control; dose 0.05 μM
Peptide text beside a SMILES is read from it. * marks the point of attachment. X52 = O=C1C=CC(=O)N1c1ccccc1CCCCCCCC(=O)*; X71 = O=C1C=CC(=O)N1c1cccc(CCCCCC(=O)*)c1; X49 = O=C1C=CC(=O)N1c1ccccc1CCCCCC(=O)*
Kindly answer with a numeric value in %, unit omitted.

Examples with their reported Inhibition rate (%) follow.
molecule	Inhibition rate (%)
C[C@H](NC(=O)CNC(=O)[C@H](CCCNC(=N)N)NC(=O)CCCCCCCc1ccccc1N1C(=O)C=CC1=O)C(=O)N[C@@H](CC(=O)O)C(=O)N[C@@H](CCCNC(=N)N)C(=O)N[C@@H](C)C(=O)NCC(=O)NCC(=O)NCC(=O)NCC(=O)N[C@@H](CCCNC(=N)N)C(=O)NCC(=O)N[C@@H](CC(=O)O)C(=O)O [X19] (X52-RGADRAGGGGRGD-OH)	40.99
C[C@H](NC(=O)CNC(=O)[C@H](CCCNC(=N)N)NC(=O)CCCCCc1cccc(N2C(=O)C=CC2=O)c1)C(=O)N[C@@H](CC(=O)O)C(=O)N[C@@H](CCCNC(=N)N)C(=O)N[C@@H](C)C(=O)NCC(=O)NCC(=O)NCC(=O)NCC(=O)N[C@@H](CCCNC(=N)N)C(=O)NCC(=O)N[C@@H](CC(=O)O)C(=O)O [X29] (X71-RGADRAGGGGRGD-OH)	46.37

Please find the next molecule below.
Q: Can you look up the measured Inhibition rate (%) of C[C@H](NC(=O)CNC(=O)[C@H](CCCNC(=N)N)NC(=O)CCCCCc1ccccc1N1C(=O)C=CC1=O)C(=O)N[C@@H](CC(=O)O)C(=O)N[C@@H](CCCNC(=N)N)C(=O)N[C@@H](C)C(=O)NCC(=O)NCC(=O)NCC(=O)NCC(=O)N[C@@H](CCCNC(=N)N)C(=O)NCC(=O)N[C@@H](CC(=O)O)C(=O)O [X17] (X49-RGADRAGGGGRGD-OH) for me?
A: 48.96

----------
Experiment: Half-lives and pharmacokinetic parameters of polypeptides vs HM-1
Conditions: in vivo, T1/2β (half-life)
Peptide text beside a SMILES is read from it. * marks the point of attachment. X7 = O=C1C=CC(=O)N1CCOCCOCCOCCOCCOCCOCCCCCCC(=O)*; X40 = O=C1C=CC(=O)N1c1ccc(CCCCCCCCC(=O)*)cc1; X72 = O=C1C=CC(=O)N1c1ccccc1CCCCCCCCCCC(=O)*
quantityMeasured: half-life (h)
Kindly answer with a numeric value in h, unit omitted.

Examples with their reported half-life follow.
compound	unitName	half-life
C[C@H](NC(=O)CNC(=O)[C@H](CCCNC(=N)N)NC(=O)CCCCCCCCCCc1ccccc1N1C(=O)C=CC1=O)C(=O)N[C@@H](CC(=O)O)C(=O)N[C@@H](CCCNC(=N)N)C(=O)N[C@@H](C)C(=O)NCC(=O)NCC(=O)NCC(=O)NCC(=O)N[C@@H](CCCNC(=N)N)C(=O)NCC(=O)N[C@@H](CC(=O)O)C(=O)O [X22] (X72-RGADRAGGGGRGD-OH)	h	35
C[C@H](NC(=O)CNC(=O)[C@H](CCCNC(=N)N)NC(=O)CCCCCCCCc1ccc(N2C(=O)C=CC2=O)cc1)C(=O)N[C@@H](CC(=O)O)C(=O)N[C@@H](CCCNC(=N)N)C(=O)N[C@@H](C)C(=O)NCC(=O)NCC(=O)NCC(=O)NCC(=O)N[C@@H](CCCNC(=N)N)C(=O)NCC(=O)N[C@@H](CC(=O)O)C(=O)O [X44] (X40-RGADRAGGGGRGD-OH)	h	33.3

Please find the next compound below.
Q: Can you look up the measured half-life of C[C@H](NC(=O)CNC(=O)[C@H](CCCNC(=N)N)NC(=O)CCCCCCOCCOCCOCCOCCOCCOCCN1C(=O)C=CC1=O)C(=O)N[C@@H](CC(=O)O)C(=O)N[C@@H](CCCNC(=N)N)C(=O)N[C@@H](C)C(=O)NCC(=O)NCC(=O)NCC(=O)NCC(=O)N[C@@H](CCCNC(=N)N)C(=O)NCC(=O)N[C@@H](CC(=O)O)C(=O)O [X89] (X7-RGADRAGGGGRGD-OH) for me?
A: 41

----------
Tested on: carrageenan-induced toe swelling
Assay: Carrageenan-induced toe swelling in rats
Format: in vivo
Details: SD rats, 2.0 mg/kg once a day for 3 d, 3 h after carrageenan
Peptide text beside a SMILES is read from it. * marks the point of attachment. X74 = O=C1C=CC(=O)N1c1cccc(CCCCCCCCCCC(=O)*)c1; X46 = O=C1C=CC(=O)N1c1cccc(CCCCC(=O)*)c1; X75 = O=C1C=CC(=O)N1c1cccc(CC(=O)*)c1
Known Swelling degree 3 h of a selection of compounds
Kindly answer with a numeric value in mg, unit omitted.

compound	Swelling degree 3 h / mg
C[C@H](NC(=O)CNC(=O)[C@H](CCCNC(=N)N)NC(=O)Cc1cccc(N2C(=O)C=CC2=O)c1)C(=O)N[C@@H](CC(=O)O)C(=O)N[C@@H](CCCNC(=N)N)C(=O)N[C@@H](C)C(=O)NCC(=O)NCC(=O)NCC(=O)NCC(=O)N[C@@H](CCCNC(=N)N)C(=O)NCC(=O)N[C@@H](CC(=O)O)C(=O)O [X25] (X75-RGADRAGGGGRGD-OH)	0.38
C[C@H](NC(=O)CNC(=O)[C@H](CCCNC(=N)N)NC(=O)CCCCc1cccc(N2C(=O)C=CC2=O)c1)C(=O)N[C@@H](CC(=O)O)C(=O)N[C@@H](CCCNC(=N)N)C(=O)N[C@@H](C)C(=O)NCC(=O)NCC(=O)NCC(=O)NCC(=O)N[C@@H](CCCNC(=N)N)C(=O)NCC(=O)N[C@@H](CC(=O)O)C(=O)O [X28] (X46-RGADRAGGGGRGD-OH)	0.35

Please find the next compound below.
Q: Can you look up the measured Swelling degree 3 h of C[C@H](NC(=O)CNC(=O)[C@H](CCCNC(=N)N)NC(=O)CCCCCCCCCCc1cccc(N2C(=O)C=CC2=O)c1)C(=O)N[C@@H](CC(=O)O)C(=O)N[C@@H](CCCNC(=N)N)C(=O)N[C@@H](C)C(=O)NCC(=O)NCC(=O)NCC(=O)NCC(=O)N[C@@H](CCCNC(=N)N)C(=O)NCC(=O)N[C@@H](CC(=O)O)C(=O)O [X34] (X74-RGADRAGGGGRGD-OH) for me?
A: 0.38

----------
Assay: Half-lives and pharmacokinetic parameters of polypeptides vs HM-1
Conditions: in vivo; read-out: T1/2β (half-life) (converted)
Peptide text beside a SMILES is read from it. * marks the point of attachment. Hexanoyl(6-maleimido) = O=C1C=CC(=O)N1CCCCCC(=O)*
quantityMeasured: half-life (h)
Kindly answer with a numeric value in h, unit omitted.

Q: Can you look up the measured half-life of C[C@H](NC(=O)CNC(=O)[C@H](CCCNC(=N)N)NC(=O)CCCCCN1C(=O)C=CC1=O)C(=O)N[C@@H](CC(=O)O)C(=O)N[C@@H](CCCNC(=N)N)C(=O)N[C@@H](C)C(=O)N[C@@H](CCC(=O)O)C(=O)N[C@@H](C)C(=O)N[C@@H](C)C(=O)N[C@@H](C)C(=O)N[C@@H](CCCCN)C(=O)N[C@@H](CCCNC(=N)N)C(=O)NCC(=O)N[C@@H](CC(=O)O)C(=O)O [P12] ({Hexanoyl(6-maleimido)}-RGADRAEAAAKRGD-OH; C-terminus assumed) for me?
A: 42.2

----------
System: carrageenan-induced toe swelling
Assay: Carrageenan-induced toe swelling in rats
Assay type: in vivo
Conditions: SD rats, 4.0 mg/kg once a day for 3 d, 3 h after carrageenan
Peptide text beside a SMILES is read from it. * marks the point of attachment. X60 = O=C1C=CC(=O)N1c1ccccc1CCCCCCCCCC(=O)*; X52 = O=C1C=CC(=O)N1c1ccccc1CCCCCCCC(=O)*; X49 = O=C1C=CC(=O)N1c1ccccc1CCCCCC(=O)*
quantityMeasured: Swelling degree 3 h (mg)
Kindly answer with a numeric value in mg, unit omitted.

Examples with their reported Swelling degree 3 h follow.
compound	measuredTarget	Swelling degree 3 h (mg)
C[C@H](NC(=O)CNC(=O)[C@H](CCCNC(=N)N)NC(=O)CCCCCc1ccccc1N1C(=O)C=CC1=O)C(=O)N[C@@H](CC(=O)O)C(=O)N[C@@H](CCCNC(=N)N)C(=O)N[C@@H](C)C(=O)NCC(=O)NCC(=O)NCC(=O)NCC(=O)N[C@@H](CCCNC(=N)N)C(=O)NCC(=O)N[C@@H](CC(=O)O)C(=O)O [X17] (X49-RGADRAGGGGRGD-OH)	carrageenan-induced toe swelling	0.31
C[C@H](NC(=O)CNC(=O)[C@H](CCCNC(=N)N)NC(=O)CCCCCCCc1ccccc1N1C(=O)C=CC1=O)C(=O)N[C@@H](CC(=O)O)C(=O)N[C@@H](CCCNC(=N)N)C(=O)N[C@@H](C)C(=O)NCC(=O)NCC(=O)NCC(=O)NCC(=O)N[C@@H](CCCNC(=N)N)C(=O)NCC(=O)N[C@@H](CC(=O)O)C(=O)O [X19] (X52-RGADRAGGGGRGD-OH)	carrageenan-induced toe swelling	0.38

Please find the next compound below.
Q: Can you look up the measured Swelling degree 3 h of C[C@H](NC(=O)CNC(=O)[C@H](CCCNC(=N)N)NC(=O)CCCCCCCCCc1ccccc1N1C(=O)C=CC1=O)C(=O)N[C@@H](CC(=O)O)C(=O)N[C@@H](CCCNC(=N)N)C(=O)N[C@@H](C)C(=O)NCC(=O)NCC(=O)NCC(=O)NCC(=O)N[C@@H](CCCNC(=N)N)C(=O)NCC(=O)N[C@@H](CC(=O)O)C(=O)O [X21] (X60-RGADRAGGGGRGD-OH) for me?
A: 0.33
